test: Tissue distribution, brain/plasma ratio by LC-MS; type: in vivo, rat; details: brain and plasma, sc, 3 mg/kg; rat, subcutaneous injection, 1 hour after injection, LC-MS
# Lookup of reported Kp at 1 h keyed by entry

Here are 5 molecules together with their reported answers.
molecule=Cc1ncn2c1Cn1ncnc1-c1cc(I)ccc1-2 assay_endpoint="Kp at 1 h" result="< 0.1"
molecule="FC(F)c1ncn2c1Cn1ncnc1-c1cc(Br)ccc1-2 [drawing 58]" assay_endpoint="Kp at 1 h" result="> 0.2"
molecule="Clc1ncn2c1Cn1ncnc1-c1cc(Br)ccc1-2 [drawing 57]" assay_endpoint="Kp at 1 h" result="< 0.1"
molecule=Clc1ncn2c1Cn1ncnc1-c1cc(I)ccc1-2 assay_endpoint="Kp at 1 h" result="< 0.1"
molecule=Cc1ncn2c1Cn1ncnc1-c1cc(Br)ccc1-2 assay_endpoint="Kp at 1 h" result="< 0.2"

We next turn to a different molecule, shown below.
## Input Give the reported value of Kp at 1 h for this record: "Cc1ncn2c1Cn1ncnc1-c1cc(Cl)ccc1-2"
## Output 0.2

----------
target: Human recombinant GABAA receptor containing α1 subunit (α1, β3, γ2) (Homo sapiens, UniProt P14867+P18507); construct: expressed in transfected cells; host or cells: 293 cell line; experiment: Competitive radioligand binding ([3H]Ro-0151788) on membranes of 293 cells, Ki; settings: human recombinant GABAA subtype containing α1; read-out: Affinity, nM (α1)
# Lookup of reported Ki keyed by entry
Note to self: number, then unit, no commentary.

Here are 3 compounds together with their reported answers.
compound="Cc1cc(-c2nncc3c(C(C)(C)CO)c(OCc4ncnn4C)nn23)no1 [MRK016-M2]" result="26 nM"
compound="Cc1cc(-c2nnc3c4ccccc4c(OCC4=CC(C)C=N4)nn23)no1 (stereo not drawn) [α5IA]" result="0.88 nM"
compound="Cc1cc(-c2nncc3c(C(C)(C)C)c(OCc4ncnn4C)nn23)no1 [MRK016]" result="0.83 nM"

We next turn to a different compound, shown below.
## Input Give the reported value of Ki for this record: Cn1ncnc1COc1nn2c(-c3cc(CO)on3)nncc2c1C(C)(C)C [MRK016-M3]
## Output 1.5 nM

----------
biological target: Human recombinant GABAA receptor containing α2 subunit (α2, β3, γ2) (Homo sapiens, UniProt P18507+P47869); construct: expressed in transfected cells; host or cells: 293 cell line; assay: Competitive radioligand binding ([3H]Ro-0151788) on membranes of 293 cells, Ki; details: human recombinant GABAA subtype containing α2; read-out: Affinity, nM (α2)
# Lookup of reported Ki keyed by entry
Reply numerically in nM, unit not repeated.

molecule="Cc1cc(-c2nnc3c4ccccc4c(OCC4=CC(C)C=N4)nn23)no1 (stereo not drawn) [α5IA]" assay_endpoint=Ki number=0.58

We next turn to a different molecule, shown below.
## Input Give the reported value of Ki for this record: Cc1cc(-c2nncc3c(C(C)(C)C)c(OCc4ncnn4C)nn23)no1 [MRK016]
## Output 0.85

----------
experiment: Tissue distribution, brain/plasma ratio by LC-MS; assay type: in vivo, rat; details: rat, in vivo
Assay endpoint: Kp

## Input Give the reported value of Kp for this record: Clc1ncn2c1Cn1ncnc1-c1cc(Br)ccc1-2 [drawing 28]
## Output < 0.5

----------
biological target: Human recombinant GABAA receptor containing α5 subunit (α5, β3, γ2) (Homo sapiens, UniProt P18507+P31644); construct: expressed in transfected cells; host or cells: 293 cell line; experiment: Competitive radioligand binding ([3H]Ro-0151788) on membranes of 293 cells, Ki; settings: human recombinant GABAA subtype containing α5; read-out: Affinity, nM (α5)
Assay endpoint: Ki (nM)
Reply numerically in nM, unit not repeated.

## Input Give the reported value of Ki for this record: "Cc1cc(-c2nncc3c(C(C)(C)C)c(OCc4ncnn4C)nn23)no1"
## Output 1.36

## Input Give the reported value of Ki for this record: "Cc1cc(-c2nncc3c(C(C)(C)CO)c(OCc4ncnn4C)nn23)no1"
## Output 9.4

## Input Give the reported value of Ki for this record: Cc1cc(-c2nnc3c4ccccc4c(OCC4=CC(C)C=N4)nn23)no1 (stereo not shown)
## Output 0.66

## Input Give the reported value of Ki for this record: "Cn1ncnc1COc1nn2c(-c3cc(CO)on3)nncc2c1C(C)(C)C"
## Output 1.1

----------
assay: Tissue distribution, brain/plasma ratio by LC-MS; assay type: in vivo, rat; details: rat, other: injection (or oral administration); brain and plasma extracted 0.25-2.0 hours after injection, LC-MS; read-out: brain/plasma ratio
Assay endpoint: Kp

## Input Give the reported value of Kp for this record: FC(F)c1ncn2c1Cn1ncnc1-c1cc(Br)ccc1-2 [drawing 27]
## Output < 0.5

----------
molecular target: Human recombinant GABAA receptor containing α3 subunit (Homo sapiens, UniProt P18507+P34903); construct: expressed in transfected cells; host or cells: 293 cell line; experiment: Electrophysiological inverse agonist efficacy on GABA-induced current; assay type: cell-based; conditions: change of GABA-induced current; negative = inhibition
Assay endpoint: Inverse agonist efficacy, % (α3) (%)
Reply numerically in %, unit not repeated.

Here are 3 molecules together with their reported answers.
molecule="Cc1cc(-c2nnc3c4ccccc4c(OCC4=CC(C)C=N4)nn23)no1 (stereo not shown)" number=4
molecule=Cc1cc(-c2nncc3c(C(C)(C)CO)c(OCc4ncnn4C)nn23)no1 number=−32
molecule=Cn1ncnc1COc1nn2c(-c3cc(CO)on3)nncc2c1C(C)(C)C number=−15

We next turn to a different molecule, shown below.
## Input Give the reported value of Inverse agonist efficacy, % (α3) for this record: "Cc1cc(-c2nncc3c(C(C)(C)C)c(OCc4ncnn4C)nn23)no1"
## Output −9

----------
assay: Tissue distribution, brain/plasma ratio by LC-MS; format: in vivo, rat; settings: in vivo, sc, 3 mg/kg; rat, subcutaneous injection, 1 hour after injection, LC-MS
Assay endpoint: Kp at 1 h

## Input Give the reported value of Kp at 1 h for this record: "Clc1ccc2c(c1)-c1ncnn1Cc1c(Cl)ncn1-2"
## Output > 0.2
